Would you mind telling me the reported Emax of each entry?
measuredTarget: hNurr1_RXRγFL (NURR1/RXRγ heterodimer) (Homo sapiens, UniProt P43354+P48443)
Sequence (P43354 328-598): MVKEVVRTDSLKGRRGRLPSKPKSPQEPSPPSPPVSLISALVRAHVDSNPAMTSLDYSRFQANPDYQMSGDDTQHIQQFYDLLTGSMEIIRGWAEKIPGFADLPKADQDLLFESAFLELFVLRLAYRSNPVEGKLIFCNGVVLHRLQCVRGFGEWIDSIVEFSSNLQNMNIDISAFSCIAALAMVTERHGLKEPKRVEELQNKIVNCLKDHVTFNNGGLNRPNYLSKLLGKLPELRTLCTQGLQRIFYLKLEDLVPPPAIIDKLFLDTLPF
Sequence (P48443 whole entry, the tested form may be a part): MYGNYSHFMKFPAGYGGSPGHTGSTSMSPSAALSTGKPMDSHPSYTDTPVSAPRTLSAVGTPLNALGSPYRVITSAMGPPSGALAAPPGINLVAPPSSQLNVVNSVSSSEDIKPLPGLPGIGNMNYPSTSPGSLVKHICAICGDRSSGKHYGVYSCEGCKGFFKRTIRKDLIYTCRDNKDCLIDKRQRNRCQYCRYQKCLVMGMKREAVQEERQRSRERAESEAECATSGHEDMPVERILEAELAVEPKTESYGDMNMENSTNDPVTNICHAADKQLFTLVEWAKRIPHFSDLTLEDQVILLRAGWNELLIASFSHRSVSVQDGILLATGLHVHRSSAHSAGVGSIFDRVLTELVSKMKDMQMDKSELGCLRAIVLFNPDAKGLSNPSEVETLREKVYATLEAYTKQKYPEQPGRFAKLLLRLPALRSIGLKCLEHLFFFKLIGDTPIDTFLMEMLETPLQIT
assayNotes: Transactivation assay in Cos-7 cells, NURR-1-Gal4 / RXRγ, luciferase reporter
Assay type: cell-based
runConditions: COS-7, read-out: hNurr1_RXRγFL Eff (%), efficacy in % relative to the reference XCT0135908 at 2·10^−5 M (=100%)
Dear colleague, please return just the value in %, with no unit written.

Problem: # query: Emax of entry O=C(O)c1ccc(Cc2cc3cc(C(F)(F)F)ccc3n2S(=O)(=O)c2cccc(C3CC3)c2)cc1 [Example 59]
Solution: 31

Problem: # query: Emax of entry CCCc1ccc(S(=O)(=O)n2c(Cc3ccc(C(=O)O)cc3)cc3cc(C(F)(F)F)ccc32)cc1 [Example 139]
Solution: 43

Problem: # query: Emax of entry O=C(O)c1ccc(Cc2cc3cc(C(F)(F)F)ccc3n2S(=O)(=O)c2cccc(-c3ccc(Cl)cc3)c2)cc1 [Example 146]
Solution: 24

Problem: # query: Emax of entry COc1cccc(S(=O)(=O)n2c(Cc3ccc(C(=O)O)cc3)cc3cc(Cl)ccc32)c1 [Example 166]
Solution: 27

Problem: # query: Emax of entry COC(=O)c1ccc(Cc2cc3cc(C(F)(F)F)ccc3n2S(=O)(=O)c2cccc(C(C)(C)C)c2)s1 [Example 190]
Solution: 107

Problem: # query: Emax of entry COC(=O)c1ccc(Cc2cc3ccccc3n2S(=O)(=O)c2cccc(C(C)(C)C)c2)cc1 [Example 194]
Solution: 36

Problem: # query: Emax of entry O=C(O)c1ccc(Cc2cc3cc(Cl)ccc3n2S(=O)(=O)c2ccc(OC(F)(F)F)cc2)cc1 [Example 156]
Solution: 43

---

measuredTarget: hNurr1_RXRαFL (NURR1/RXRα heterodimer) (Homo sapiens, UniProt P19793+P43354)
Sequence (P19793 whole entry, the tested form may be a part): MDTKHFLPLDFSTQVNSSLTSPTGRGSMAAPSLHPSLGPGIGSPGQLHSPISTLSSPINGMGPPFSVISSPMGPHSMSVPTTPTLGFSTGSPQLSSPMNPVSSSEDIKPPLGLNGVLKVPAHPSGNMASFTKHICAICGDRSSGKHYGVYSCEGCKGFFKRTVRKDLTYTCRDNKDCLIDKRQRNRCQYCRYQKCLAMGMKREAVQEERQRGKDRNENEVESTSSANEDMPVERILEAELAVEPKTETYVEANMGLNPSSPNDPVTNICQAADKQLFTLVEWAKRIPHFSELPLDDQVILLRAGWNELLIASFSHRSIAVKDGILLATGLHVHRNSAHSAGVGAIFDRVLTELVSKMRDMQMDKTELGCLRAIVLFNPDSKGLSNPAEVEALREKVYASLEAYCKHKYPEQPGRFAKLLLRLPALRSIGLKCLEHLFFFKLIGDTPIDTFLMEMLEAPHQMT
Sequence (P43354 328-598): as the sequence (P43354 328-598) above
assayNotes: Transactivation assay in Cos-7 cells, NURR-1-Gal4 / RXRα, luciferase reporter
Assay type: cell-based
runConditions: COS-7, read-out: hNurr1_RXRαFL Eff (%), efficacy in % relative to the reference XCT0135908 at 2·10^−5 M (=100%)
Would you mind telling me the reported Emax of each entry?
Dear colleague, please return just the value in %, with no unit written.

Problem: # query: Emax of entry "CC(C)(C)c1cccc(S(=O)(=O)n2c(Cc3ccc(C(=O)O)cc3)cc3ccccc32)c1"
Solution: 57

Problem: # query: Emax of entry "CC(C)(C)c1cccc(S(=O)(=O)n2c(Cc3ccc(C(=O)O)cn3)cc3cc(C(F)(F)F)ccc32)c1"
Solution: 80

Problem: # query: Emax of entry CC(C)(C)c1cccc(S(=O)(=O)n2c(C(O)c3ccc(C(=O)O)s3)cc3cc(C(F)(F)F)ccc32)c1 (stereo not shown)
Solution: 100

Problem: # query: Emax of entry "CC(C)c1ccc(S(=O)(=O)n2c(Cc3csc(C(=O)O)c3)cc3cc(C(F)(F)F)ccc32)cc1"
Solution: 131

Problem: # query: Emax of entry "O=C(O)c1ccc(Cc2cc3cc(Cl)ccc3n2S(=O)(=O)c2ccc3c(c2)OCCO3)o1"
Solution: 147

Problem: # query: Emax of entry "O=C(O)c1ccc(Cc2cc3cc(C(F)(F)F)ccc3n2S(=O)(=O)c2ccc(Oc3ccccc3)cc2)cc1"
Solution: 30

Problem: # query: Emax of entry "Cc1cc(Cc2cc3cc(C(F)(F)F)ccc3n2S(=O)(=O)c2cccc(C(C)(C)C)c2)c(F)cc1C(=O)O"
Solution: 90

---

Would you mind telling me the reported pEC50 of each entry?
measuredTarget: hNurr1_RXRγFL (NURR1/RXRγ heterodimer) (Homo sapiens, UniProt P43354+P48443)
assayNotes: Transactivation assay in Cos-7 cells, NURR-1-Gal4 / RXRγ, luciferase reporter
runConditions: Cos-7 cells, overnight incubation
// field semantics: pEC50 = negative decimal log of concentration (mol/L)

Problem: # query: pEC50 of entry O=C(O)c1ccc(Cc2cc3cc(Cl)ccc3n2S(=O)(=O)c2ccc3c(c2)OCCO3)s1 [Example 77]
Solution: 6.34

Problem: # query: pEC50 of entry COc1cccc(S(=O)(=O)n2c(Cc3ccc(C(=O)O)cc3)cc3cc(C(F)(F)F)ccc32)c1 [Example 13]
Solution: 6.28

Problem: # query: pEC50 of entry COc1ccc(S(=O)(=O)n2c(Cc3ccc(C(=O)O)cc3)cc3cc(C(F)(F)F)ccc32)cc1 [Example 138]
Solution: 6.23

Problem: # query: pEC50 of entry Cn1ccc(-c2cccc(S(=O)(=O)n3c(Cc4ccc(C(=O)O)cc4)cc4cc(C(F)(F)F)ccc43)c2)n1 [Example 18]
Solution: 6.18

Problem: # query: pEC50 of entry O=C(O)c1ccc(Cc2cc3cc(C(F)(F)F)ccc3n2S(=O)(=O)c2cccc(SC(F)F)c2)cc1 [Example 126]
Solution: 6.85

Problem: # query: pEC50 of entry CC(C)COc1ccc(S(=O)(=O)n2c(Cc3ccc(C(=O)O)cc3)cc3cc(C(F)(F)F)ccc32)cc1 [Example 127]
Solution: 6.24

Problem: # query: pEC50 of entry O=C(O)c1ccc(Cc2cc3cc(Cl)ccc3n2S(=O)(=O)c2ccc3ccccc3c2)cc1 [Example 163]
Solution: 6.03

Problem: # query: pEC50 of entry O=C(O)c1ccc(Cc2cc3cc(Cl)ccc3n2S(=O)(=O)c2ccc(C(F)(F)F)cc2)cc1 [Example 158]
Solution: 5.90

Problem: # query: pEC50 of entry O=C(O)c1ccc(Cc2cc3cc(Cl)ccc3n2S(=O)(=O)c2ccc(F)cc2)cc1 [Example 167]
Solution: 5.61

Problem: # query: pEC50 of entry CC(C)(C)c1cccc(S(=O)(=O)n2c(Cc3ccc(C(=O)O)cc3)cc3c(Cl)c(Cl)ccc32)c1 [Example 119]
Solution: 6.58

Problem: # query: pEC50 of entry O=C(O)c1ccc(Cc2cc3cc(Cl)ccc3n2S(=O)(=O)c2cccc(F)c2)cc1 [Example 154]
Solution: 5.86

Problem: # query: pEC50 of entry COC(=O)c1ccc(Cc2cc3cc(C(F)(F)F)ccc3n2S(=O)(=O)c2ccc(C(C)C)cc2)cc1F [Example 1]
Solution: 6.14

Problem: # query: pEC50 of entry CC(C)(C)c1cccc(S(=O)(=O)n2c(Cc3ccc(C(=O)O)c(Cl)c3)cc3cc(C(F)(F)F)ccc32)c1 [Example 206]
Solution: 6.44

Problem: # query: pEC50 of entry Cc1ccc(S(=O)(=O)n2c(Cc3ccc(C(=O)O)cc3)cc3cc(C(F)(F)F)ccc32)cc1 [Example 134]
Solution: 6.26

Problem: # query: pEC50 of entry Cc1cc(C(=O)O)ccc1Cc1cc2cc(C(F)(F)F)ccc2n1S(=O)(=O)c1cccc(C(C)(C)C)c1 [Example 197]
Solution: 6.23

Problem: # query: pEC50 of entry O=C(O)c1ccc(Cc2cc3cc(C(F)(F)F)ccc3n2S(=O)(=O)c2ccc(OC(F)F)c(Cl)c2)cc1 [Example 124]
Solution: 6.16

Problem: # query: pEC50 of entry CC(C)c1ccc(S(=O)(=O)n2c(Cc3ccc(C(=O)O)s3)cc3cc(C(F)(F)F)ccc32)cc1 [Example 71]
Solution: 7.02

Problem: # query: pEC50 of entry O=C(O)c1ccc(Cc2cc3cc(Cl)ccc3n2S(=O)(=O)c2ccc3c(c2)OCCCO3)cc1 [Example 178]
Solution: 5.92

Problem: # query: pEC50 of entry CC(C)Oc1ccc(S(=O)(=O)n2c(Cc3ccc(C(=O)O)cc3)cc3cc(Cl)ccc32)cc1 [Example 162]
Solution: 5.81

Problem: # query: pEC50 of entry CC(C)(C)c1cccc(S(=O)(=O)n2c(Cc3nc(C(=O)O)cs3)cc3cc(C(F)(F)F)ccc32)c1 [Example 89]
Solution: 6.21

Problem: # query: pEC50 of entry CC(C)(C)c1cccc(S(=O)(=O)n2c(Cc3cccc(C(=O)O)c3)cc3cc(C(F)(F)F)ccc32)c1 [Example 8]
Solution: 7.00

Problem: # query: pEC50 of entry Cc1ccc(S(=O)(=O)n2c(Cc3ccc(C(=O)O)cc3)cc3cc(Cl)ccc32)cc1 [Example 171]
Solution: 6.03

Problem: # query: pEC50 of entry CC(C)(C)c1cccc(S(=O)(=O)n2c(Cc3ccc(C(=O)O)cn3)cc3cc(C(F)(F)F)ccc32)c1 [Example 66]
Solution: 6.96

Problem: # query: pEC50 of entry Cc1cccc(S(=O)(=O)n2c(Cc3ccc(C(=O)O)cc3)cc3cc(C(F)(F)F)ccc32)c1 [Example 141]
Solution: 6.44

Problem: # query: pEC50 of entry COC(=O)c1ccc(Cc2cc3cc(Cl)ccc3n2S(=O)(=O)c2ccc(C(C)C)cc2)cc1 [Example 40]
Solution: 5.68

Problem: # query: pEC50 of entry COC(=O)c1ccc(Cc2cc3cc(C(F)(F)F)ccc3n2S(=O)(=O)c2cccc(C(C)(C)C)c2)s1 [Example 190]
Solution: 7.89

Problem: # query: pEC50 of entry CN1CCOc2ccc(S(=O)(=O)n3c(Cc4ccc(F)c(C(=O)O)c4)cc4cc(C(F)(F)F)ccc43)cc21 [Example 212]
Solution: 7.40

Problem: # query: pEC50 of entry O=C(O)c1ccc(Cc2cc3cc(Cl)ccc3n2S(=O)(=O)c2ccc3c(c2)OCO3)cc1 [Example 174]
Solution: 6.09
